assay: LC retention time (Atlantis T3, 5-95% MeOH gradient, 0.1% formic acid); higher = more retained / less polar
Entries and their LC retention time values follow.

molecule: CCOP(=S)(OCC)Oc1cc(C)nc(C(C)C)n1
unit_label: min
LC retention time: 21.1

molecule: CC(C)N(C(=O)CS(=O)(=O)[O-])c1ccc(F)cc1
unit_label: min
LC retention time: 21.4

molecule: O=C(Nc1ccccc1-c1ccc(Cl)cc1)c1cccnc1Cl
unit_label: min
LC retention time: 19.4

molecule: Oc1cc(Cl)ccc1Oc1ccc(Cl)cc1Cl
unit_label: min
LC retention time: 21.9

molecule: CCOc1ccc2ccccc2c1C(=O)NC1C(=O)N2C1SC(C)(C)C2C(=O)[O-] (stereo not drawn)
unit_label: min
LC retention time: 19

molecule: CCCC[NH+]1CCCCC1C(=O)Nc1c(C)cccc1C (stereo not drawn)
unit_label: min
LC retention time: 13.9

molecule: CCOC(=O)C1=CC(OC(CC)CC)C(NC(C)=O)C([NH3+])C1 (stereo not drawn)
unit_label: min
LC retention time: 14.7

molecule: CCCC(C)C1(CC)C(=O)N=C([S-])NC1=O (stereo not drawn)
unit_label: min
LC retention time: 18.7

molecule: Cc1cc([N-]S(=O)(=O)c2ccc(N)cc2)no1
unit_label: min
LC retention time: 13

molecule: COCCN(C(=O)CS(=O)(=O)[O-])c1c(C)cccc1C
unit_label: min
LC retention time: 19.9

molecule: CCC(=O)OC(Cc1ccccc1)(c1ccccc1)C(C)C[NH+](C)C (stereo not drawn)
unit_label: min
LC retention time: 15.6

molecule: CSc1nc(NC(C)C)nc(NC(C)C)n1
unit_label: min
LC retention time: 18.2

molecule: Cn1nnc2ccccc21
unit_label: min
LC retention time: 14

molecule: NS(=O)(=O)c1cc(C(=O)[O-])c(NCc2ccco2)cc1Cl
unit_label: min
LC retention time: 16.2

molecule: COc1ccc2c(c1)C13CCCCC1C(C2)[NH+](C)CC3 (stereo not drawn)
unit_label: min
LC retention time: 14.5

molecule: Nc1ccc(S(=O)(=O)[N-]c2nccs2)cc1
unit_label: min
LC retention time: 10.4

molecule: COc1c(C)c2c(c(O)c1CC=C(C)CCC(=O)[O-])C(=O)OC2
unit_label: min
LC retention time: 18.9

molecule: CCCCCC(C)OC(=O)COc1ccc(Cl)c2cccnc12 (stereo not drawn)
unit_label: min
LC retention time: 22.4

molecule: CN1CCN(C)C1=O
unit_label: min
LC retention time: 10.1

molecule: CCC(C)c1cc([N+](=O)[O-])cc([N+](=O)[O-])c1[O-] (stereo not drawn)
unit_label: min
LC retention time: 21.5

molecule: CCc1cccc2c3c([nH]c12)C(CC)(CC(=O)[O-])OCC3 (stereo not drawn)
unit_label: min
LC retention time: 20.8

molecule: O=[N+]([O-])N=C1NCCN1Cc1ccc(Cl)nc1
unit_label: min
LC retention time: 13.4

molecule: CN1C(=O)CN=C(C2=CCCCC2)c2cc(Cl)ccc21
unit_label: min
LC retention time: 19.9

====

Entries and their absolute recovery values follow.
test: absolute recovery over vacuum-assisted evaporative concentration; higher = better recovery; details: wastewater effluent; enrichment method: VEC

compound: Cc1cc(C)nc(NC(=O)[N-]S(=O)(=O)c2ccccc2C(=O)OC2COC2)n1
unit_label: %
absolute recovery: 111
//
compound: CCCCc1oc2ccc(NS(C)(=O)=O)cc2c1C(=O)c1ccc(OCCC[NH+](CCCC)CCCC)cc1
unit_label: %
absolute recovery: 44.9
//
compound: Cc1cncc(C(=O)[O-])c1
unit_label: %
absolute recovery: 94.9
//
compound: O=C([O-])COCC[NH+]1CCN(C(c2ccccc2)c2ccc(Cl)cc2)CC1 (centres undefined)
unit_label: %
absolute recovery: 107
